# Assay Procedure: physchem
# Recorded Conditions: logP
Consider the following molecules and their measured logP readings.
Please respond with just the number, no unit label.

Example entries and their recorded answers appear below.
OCCCCF [compound 21] :: 0.092
CC(O)C(F)(F)C(F)(F)F (stereo not drawn) [compound 20] :: 1.53
CC(O)C(F)(F)C(F)F (stereo not drawn) [compound 19] :: 1.05

Per the record, CC(O)CCF (stereo not drawn) [compound 16] has logP of 0.077

Entry OCCCC(F)(F)C(F)F [compound 34, 4,4,5,5-tetrafluoropentan-1-ol] , logP reported as 0.971

logP in this record for OCCCCCF [compound 30, 5-fluoro-1-pentanol] : 0.524

logP measured on CC(O)(C(F)(F)F)C(F)(F)F [compound 15] = 2.08

logP for OCCCC(F)(F)C(F)(F)F [compound 36] is 1.73

Data point: OCCC(F)(F)C(F)(F)F [compound 24] ; logP = 1.29

====

# Assay Procedure: physchem
# Recorded Conditions: Average logP
Quantity Measured: logP
Please give only the number in your answer, with no unit.

CC(O)CCF (centres unmarked) :: 0.08

Kindly consider the entry below.
For record OCCCC(F)(F)C(F)F the listed logP is 0.97

====

# Assay Procedure: log P determination by 19F NMR shake-flask method with internal fluorinated reference (octanol/water)
# Recorded Conditions: octanol/water, logP, multiple acquisitions of one sample (Table SI7), single acquisition; reference 2,2,2-trifluoroethanol
Quantity Measured: logP
Could you keep your reply to the number by itself?

Per the record, CCCC(F)CO (stereo not shown) has logP of 0.517

====

Recorded ΔlogP (milogP vs logP exp) values for a group of molecules are listed next.
# Assay Procedure: milogP calculated using Molinspiration Cheminformatics
# Recorded Conditions: Table SI14

C[C@H](O)C[C@@H](C)F [compound 26] :: +0.49
OCCCC(F)(F)F [compound 23, 4,4,4-trifluoro-1-butanol] :: +0.24

Lookup result for OC[C@H]1OC(O)C(F)(F)C(F)(F)[C@H]1O (stereo partly shown) [compound 53] ; measured ΔlogP (milogP vs logP exp): +0.07

The molecule listed as CC(F)(F)CO [compound 11] has a reported ΔlogP (milogP vs logP exp) of +0.59

====

# Assay Procedure: log P determination by 19F NMR shake-flask method with internal fluorinated reference (octanol/water)
# Recorded Conditions: octanol/water, average logP, mA 70.0 mg, mREF 30.0/70.0 mg
Quantity Measured: logP
No unit in the answer, only the number.

logP for OCC(F)(F)C(F)(F)F is 1.18

====

# Assay Procedure: log P determination by 19F NMR shake-flask method with internal fluorinated reference (octanol/water)
# Recorded Conditions: octanol/water, average logP, mA 10.0 mg, mREF 4.0 mg
Quantity Measured: logP
Simply state the number, no unit and no words.

The compound listed as OCC(F)(F)C(F)(F)F has a reported logP of 1.2

====

# Assay Procedure: log P determination by 19F NMR shake-flask method with internal fluorinated reference (octanol/water)
# Recorded Conditions: octanol/water, error (mean logP to three decimals), reference TFE (+0.36)
Entry flag: Met if logP reaches 0.9; Not met if it does not.

Examples with answers:
OCCC(F)(F)F [compound 12] :: Not met
Oc1ccccc1F [SI4, o-fluorophenol] :: Met
CCCC(F)CO (stereo not drawn) [compound 33, 2-fluoropentan-1-ol] :: Not met
OC(C(F)(F)F)C(F)(F)F [compound 7] :: Met
CC(O)CC(F)(F)F (stereo not drawn) [compound 18] :: Not met
CCCC(O)C(F)(F)F (stereo not drawn) [compound 29, 1,1,1-trifluoropentan-2-ol] :: Met

Query string: Has CC(F)CCO (stereo not drawn) [compound 22, 3-fluorobutan-1-ol] a recorded logP greater than or equal to 0.9?
Result string: Not met

Query string: Does the reported logP for C[C@H](O)C[C@H](C)F [compound 27] fall at or above the 0.9 mark?
Result string: Not met

Query string: Item OCCCCC(F)(F)F [compound 35] with logP of 0.9 or above?
Result string: Met

Query string: Form field: logP at least 0.9? Entry: C[C@H](O)C[C@@H](C)F [compound 26]
Result string: Not met

Query string: Please indicate if the recorded logP for CC(F)(F)CO [compound 11] meets or exceeds 0.9.
Result string: Not met

Query string: Evaluate OCC(F)(F)C(F)(F)F [compound 13, CF3CF2CH2OH] : logP at minimum 0.9?
Result string: Met

Query string: Hi, just wondering whether CC(O)CC(C)(F)F (stereo not drawn) [compound 28] shows logP of 0.9 or higher.
Result string: Not met

Query string: Given OC[C@H]1OC(O)C(F)(F)C(F)(F)[C@H]1O (stereo partly drawn) [compound 53] , state whether its logP is at least 0.9.
Result string: Not met

Query string: Please indicate if the recorded logP for OCCC(F)F [compound 10] meets or exceeds 0.9.
Result string: Not met

====

# Assay Procedure: log P determination by 19F NMR shake-flask method with internal fluorinated reference (octanol/water)
# Recorded Conditions: octanol/water, logP, single experiment; reference TFE (+0.36)
Measured logP, listed per entry.
Could you respond with only the numeric value?

Recorded results for 4 compounds are shown here.
OCC(F)(F)C(F)(F)F :: 1.2
OC(C(F)(F)F)C(F)(F)F :: 1.69
CCCC(O)C(F)(F)F (stereo not drawn) :: 1.83
OCCC(F)(F)F :: 0.413

Notebook: CCCC(F)CO (stereo not drawn) , logP read as 0.872

Lab note: measured logP of CC(O)CC(C)(F)F (stereo not drawn) was 0.659

What the record says about CC(O)C(F)(F)F (stereo not drawn) : logP is 0.712

====

# Assay Procedure: milogP calculated using Molinspiration Cheminformatics
# Recorded Conditions: Table SI14
Quantity Measured: ΔlogP (milogP vs logP exp)

CC(O)C(F)(F)F (centres unmarked) [compound 6] :: +0.27

Recorded result, OCCCCC(F)(F)F [compound 35] , ΔlogP (milogP vs logP exp): +0.43

The compound listed as CC[C@H](O)C[C@@H](F)CC [compound 38] shows ΔlogP (milogP vs logP exp) equal to +0.27

GET /value?item= OC[C@H](F)[C@@H](F)CO [compound 39] &field=ΔlogP (milogP vs logP exp) returns +0.63

Lab book: ΔlogP (milogP vs logP exp) of CC[C@H](O)C[C@H](F)CC [compound 37] noted as +0.40

In plain terms, CC(O)CC(F)(F)F (centres unmarked) [compound 18] has a documented ΔlogP (milogP vs logP exp) of +0.53

Lab note: measured ΔlogP (milogP vs logP exp) of O=C[C@H](F)[C@@H](O)[C@H](O)[C@H](O)CO [compound 49, 2-Fluoro-2-deoxy-D-glucose] was +0.28

According to the records, this compound OC[C@@H](F)[C@@H](F)CO [compound 40] displays ΔlogP (milogP vs logP exp) of +0.59

ΔlogP (milogP vs logP exp) in this record for CC(O)CC(C)(F)F (centres unmarked) [compound 28] : +0.67

====

# Assay Procedure: physchem
# Recorded Conditions: Average logP
Classification field: enter YES for logP values not below 1, NO for values below it.

OCCCCCF :: NO

Query string: Given OCC(F)(F)C(F)(F)CO , state whether its logP is at least 1.
Result string: NO

Query string: hey, is logP for this one >= 1? OCCC(F)(F)C(F)(F)F
Result string: YES

====

# Assay Procedure: log P determination by 19F NMR shake-flask method with internal fluorinated reference (octanol/water)
# Recorded Conditions: octanol/water, error (mean logP to three decimals), reference TFE (+0.36)
Quantity Measured: logP
Provide a numeric answer; units are not to be included.

Some solved cases for reference:
OCCCC(F)(F)F [compound 23, 4,4,4-trifluoro-1-butanol] :: 0.91
CC(F)CCCO (stereo not drawn) [compound 31, 4-fluoropentan-1-ol] :: 0.522
CC(F)(F)CCCO [compound 32, 4,4-difluoropentan-1-ol] :: 0.708
CC(O)CC(F)F (stereo not drawn) [compound 17] :: 0.417
CC(O)C(F)(F)F (stereo not drawn) [compound 6] :: 0.715

Then this compound:
The compound identified as CC(C)(O)C(F)(F)F [compound 14] registered its logP at 1.03

====

# Assay Procedure: log P determination by 19F NMR shake-flask method with internal fluorinated reference (octanol/water)
# Recorded Conditions: octanol/water, logP, single experiment; reference TFE (+0.36)
Quantity Measured: logP
Reply: number alone, nothing else.

Completed entries (count: 3):
CC(F)(F)CCCO [compound 32, 4,4-difluoropentan-1-ol] :: 0.712
CC(F)(F)CO [compound 11] :: 0.113
OCCC(F)F [compound 10] :: 0.033

Short answer for CC(O)CC(F)(F)F (centres unmarked) [compound 18] : logP was 0.725

Measured logP of C[C@H](O)C[C@H](C)F [compound 27] : 0.57
